These entries and their values trace back to patent US20060135501A1.

# key: entry, value: IC50
# Tested on: human umbilical vein endothelial cells (HUVEC)
# assay.notes: HUVEC proliferation assay co-stimulated with rhVEGF
# Type: cell-based
# condition.parameters: Homo sapiens, HUVEC, Table 6; first test (unmarked value)
quantity.measured: IC50 (nM)

• C=CCCOc1ccc(C(=O)N2CCC(c3nc(C(=O)Nc4cc(C(N)=O)ccc4Cl)cs3)CC2)cc1 = 649
• CN(C)c1cccc(C(=O)N2CCC(c3nc(C(=O)Nc4cc(CC(N)=O)ccc4Cl)cs3)CC2)c1 = 712
• NC(=O)c1ccc(Cl)c(NC(=O)c2csc(C3CCN(C(=O)Cc4ccccc4Cl)CC3)n2)c1 = 448
• NC(=O)c1ccc(Cl)c(NC(=O)c2csc(C3CCN(C(=O)CCc4ccco4)CC3)n2)c1 = 222
• NC(=O)c1ccc(Cl)c(NC(=O)c2csc(C3CCN(C(=O)CSc4ncccn4)CC3)n2)c1 = 938
• NC(=O)Cc1ccc(Cl)c(NC(=O)c2csc(C3CCN(C(=O)CCc4ccco4)CC3)n2)c1 = 803
